- EXPERIMENT DESCRIPTION: xn = mol fraction of the nth substance listed, in the solute-free solvent
- RUN CONDITIONS: 313.15 K; x2 = 0.5454
VALUE TYPE: solubility (g/100 g solution)

Use the examples below as a reference point.
Cc1[nH]c(=O)c(C#N)cc1-c1ccncc1 + CC(C)O + O ... 0.0226
CN1CCN(C2=Nc3cc(Cl)ccc3Nc3ccccc32)CC1 + CC(C)O + O ... 2.24
c1ccc2[nH]c(-c3cscn3)nc2c1 + CC(C)O + O ... 0.399
Nc1nccnc1Cl + CC(C)O + O ... 1.58

[A] c1ccc2[nH]c(-c3cscn3)nc2c1 + CCCO + O
[B] Nc1cccc(S(=O)(=O)c2cccc(N)c2)c1 + CC(C)O + O
Task for the reader: decide whether A or B has the larger solubility (g/100 g solution). Kindly state the label of the option you pick. B
(B: 1.71, A: 0.785)
